# EXPERIMENTAL_PROTOCOL: Selectivity ratio of IC50 for human UCHL3 to IC50 for Plasmodium falciparum UCHL3
Below, each entry is listed with its recorded Ratio IC50.

Using the record for C=CC(=O)NCCn1ccnc1-c1ccccc1 , report its Ratio IC50.
> 4.5

For the compound shown here, C=CC(=O)Nc1ccc2ccn(CCN(C)C)c2c1 , give the reported Ratio IC50.
> 17.8

Entry C=CC(=O)Nc1ccc(N2CCN(C)CC2)nc1OC : reported Ratio IC50 = ?
3.1

Please look up its Ratio IC50: C=CC(=O)N1CCN(c2nc(C)nc3c2cnn3C)CC1
> 4.2

// lookup Ratio IC50 for C=CC(=O)NCc1cc(C(F)(F)F)ccc1N1CCN(C)CC1
> 7.2

Give its Ratio IC50 value. Item: C=CC(=O)Nc1ccc2nc(N3CCOCC3)oc2c1
> 1.3

New cases:
// lookup Ratio IC50 for C=CC(=O)NCc1ccccc1-c1ccc(Cn2ccnc2)cc1
> 21.6

---

A collection of molecules and their measured inhibition at 500 µM
# Tested on: Plasmodium falciparum
# EXPERIMENTAL_PROTOCOL: Antimalarial activity against asexual blood stage Plasmodium falciparum Cam3.II harboring K13 C580Y mutant assessed as reduction in parasite viability at 500 uM measured after 72 hrs by Hoechst/Mitotracker Deep Red staining based high content imaging analysis
# Assay type: functional

Worked set:
inhibition at 500 µM of C=CC(=O)N1CCN(c2nc(C)nc3c2cnn3C)CC1 on Plasmodium falciparum?
> 90%

For the record C=CC(=O)Nc1ccc2nc(N3CCOCC3)oc2c1 , what value of inhibition at 500 µM is listed for Plasmodium falciparum?
> 90%

Query inhibition at 500 µM on Plasmodium falciparum for C=CC(=O)NCc1cc(C(F)(F)F)ccc1N1CCN(C)CC1
> 90%

Item C=CC(=O)NCCn1ccnc1-c1ccccc1 with Plasmodium falciparum - inhibition at 500 µM?
< 10%

Checklist item: inhibition at 500 µM tested on Plasmodium falciparum, entry C=CC(=O)NCc1ccccc1-c1ccc(Cn2ccnc2)cc1 , value?
< 10%

Others:
What measured inhibition at 500 µM is associated with C=CC(=O)Nc1ccc2ccn(CCN(C)C)c2c1 on Plasmodium falciparum?
> 90%

Identify the measured inhibition at 500 µM of C=CC(=O)Nc1ccc(N2CCN(C)CC2)nc1OC for Plasmodium falciparum.
> 90%

---

# Tested on: HEK293
# EXPERIMENTAL_PROTOCOL: Cytotoxicity against HEK293 cells assessed as cell viability at 500 uM incubated for 24 hrs by Cell Titer Glo assay relative to control
# Assay type: toxicity, cell-based
# ASSAY_SETUP: human, hek293, 24 h
Item-by-item account of Activity

Recorded Activity for C=CC(=O)Nc1ccc(N2CCN(C)CC2)nc1OC with HEK293, please?
> 80%

New cases:
GET /values?readout=Activity&system=HEK293&item= C=CC(=O)N1CCN(c2nc(C)nc3c2cnn3C)CC1
> 80%

Hello, I am looking for reported Activity with HEK293 for C=CC(=O)Nc1ccc2nc(N3CCOCC3)oc2c1 . Could you help?
< 50%

Param readout= Activity; system= HEK293; entry= C=CC(=O)NCc1cc(C(F)(F)F)ccc1N1CCN(C)CC1 ; returns value.
> 80%

Give recorded Activity with HEK293 for the following compound: C=CC(=O)Nc1ccc2ccn(CCN(C)C)c2c1
> 80%
